Kindly state melting point for each of the entries shown.

In: I have this compound here, COc1cccc(C(=O)Nc2cc3nc(C4CCCCC4)[nH]c3cc2N(C)C)c1OC , and I need its recorded melting point.
Out: 173 to 174 °C

In: I have this compound here, CN(C)c1cc2[nH]c(C3CCCCC3)nc2cc1NC(=O)c1ccc(F)cc1 , and I need its recorded melting point.
Out: 196 to 197 °C

In: I have this compound here, CN(C)c1cc2[nH]c(C3CCCCC3)nc2cc1N , and I need its recorded melting point.
Out: 135 to 137 °C

In: I have this compound here, CN(C)c1cc2[nH]c(C3CCCCC3)nc2cc1NC(=O)c1ccc(OC(F)F)cc1 , and I need its recorded melting point.
Out: 183 to 185 °C
